From: paper PMC2386288

- measurement target: ThyX (Mycobacterium tuberculosis, UniProt P9WG57)
- Sequence (P9WG57 whole entry): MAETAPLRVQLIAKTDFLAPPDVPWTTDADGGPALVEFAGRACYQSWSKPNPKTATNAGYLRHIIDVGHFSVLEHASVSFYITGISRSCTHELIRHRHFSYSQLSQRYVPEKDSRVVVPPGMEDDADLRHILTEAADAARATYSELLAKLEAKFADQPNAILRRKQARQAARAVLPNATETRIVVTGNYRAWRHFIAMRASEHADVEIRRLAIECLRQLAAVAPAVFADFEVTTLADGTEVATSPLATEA
reported endpoint: Ki (nM)
Please reply with the bare figure in nM and do not write the unit itself.

Ki recorded for this compound, O=c1[nH]c(=O)n([C@H]2C[C@H](O)[C@@H](COP(=O)(O)O)O2)cc1F , is 100

###

- measurement target: ThyA (Mycobacterium tuberculosis, UniProt P9WFR9)
- Sequence (P9WFR9 2-266): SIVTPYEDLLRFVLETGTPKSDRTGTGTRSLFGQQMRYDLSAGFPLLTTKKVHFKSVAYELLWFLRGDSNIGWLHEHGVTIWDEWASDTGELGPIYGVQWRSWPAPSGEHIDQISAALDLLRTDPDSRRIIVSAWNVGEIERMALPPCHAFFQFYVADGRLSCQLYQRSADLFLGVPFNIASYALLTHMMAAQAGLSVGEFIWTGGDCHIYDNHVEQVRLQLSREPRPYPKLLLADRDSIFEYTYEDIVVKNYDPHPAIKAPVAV
reported endpoint: Ki

The value of Ki recorded for O=c1[nH]c(=O)n([C@H]2C[C@H](O)[C@@H](COP(=O)(O)O)O2)cc1F when tested on ThyA (Mycobacterium tuberculosis, UniProt P9WFR9) reads 2 nM
